Kindly supply the reported pKd values for the records listed here.
# SYSTEM_UNDER_TEST: T1, Human GDF15 Fc (human) (UniProt Q99988)
# T1 sequence (chain, biotinylated (EZ-Link Sulfo-NHS-Biotinylation Kit) where printed as biotinylated): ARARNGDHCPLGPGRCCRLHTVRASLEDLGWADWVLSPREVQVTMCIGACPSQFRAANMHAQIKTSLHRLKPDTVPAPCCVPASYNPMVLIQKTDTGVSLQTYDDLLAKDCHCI
# PROTOCOL: Octet BLI, Fab monovalent
Numbers only, as −log10 of the molar value.

// solved cases for pKd follow
Clone P Fab (Fab, V domains shown) VH: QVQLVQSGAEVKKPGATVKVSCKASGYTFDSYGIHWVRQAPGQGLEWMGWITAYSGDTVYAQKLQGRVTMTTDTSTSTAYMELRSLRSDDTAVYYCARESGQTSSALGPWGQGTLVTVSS VL: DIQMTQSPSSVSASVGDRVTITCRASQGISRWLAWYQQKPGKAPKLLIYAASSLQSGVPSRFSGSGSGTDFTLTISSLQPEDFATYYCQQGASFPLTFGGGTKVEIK: 8.43
Clone S Fab (Fab, V domains shown) VH: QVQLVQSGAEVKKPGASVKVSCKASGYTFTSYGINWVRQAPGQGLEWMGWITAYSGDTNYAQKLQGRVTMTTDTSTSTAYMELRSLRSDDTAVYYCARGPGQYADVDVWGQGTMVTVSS VL: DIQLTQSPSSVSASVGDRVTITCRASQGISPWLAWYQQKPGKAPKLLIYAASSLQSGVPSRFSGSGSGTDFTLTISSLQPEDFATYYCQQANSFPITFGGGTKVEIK: 9.32
Clone E Fab (Fab, V domains shown) VH: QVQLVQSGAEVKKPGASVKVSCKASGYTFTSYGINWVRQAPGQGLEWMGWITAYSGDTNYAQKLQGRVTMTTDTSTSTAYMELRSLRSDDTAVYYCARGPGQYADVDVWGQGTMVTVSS VL: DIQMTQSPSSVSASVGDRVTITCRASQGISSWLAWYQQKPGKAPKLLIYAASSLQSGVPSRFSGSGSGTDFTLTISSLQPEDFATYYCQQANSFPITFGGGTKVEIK: 9.04
Clone T Fab (Fab, V domains shown) VH: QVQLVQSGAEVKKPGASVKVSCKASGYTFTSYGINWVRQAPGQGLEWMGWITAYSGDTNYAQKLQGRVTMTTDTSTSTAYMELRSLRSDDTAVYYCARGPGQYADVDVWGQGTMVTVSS VL: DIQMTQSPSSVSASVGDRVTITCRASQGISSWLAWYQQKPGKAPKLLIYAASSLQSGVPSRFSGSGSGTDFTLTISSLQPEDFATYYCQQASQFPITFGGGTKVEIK: 9.21

// for each binder below, give its pKd
1. Clone I Fab (Fab, V domains shown) VH: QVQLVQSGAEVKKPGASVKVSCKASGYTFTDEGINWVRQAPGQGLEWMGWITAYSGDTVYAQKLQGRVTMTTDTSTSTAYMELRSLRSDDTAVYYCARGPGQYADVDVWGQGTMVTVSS VL: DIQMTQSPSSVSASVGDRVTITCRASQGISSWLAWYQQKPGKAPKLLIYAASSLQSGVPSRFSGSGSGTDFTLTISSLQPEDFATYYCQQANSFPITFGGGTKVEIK
2. Clone J Fab (Fab, V domains shown) VH: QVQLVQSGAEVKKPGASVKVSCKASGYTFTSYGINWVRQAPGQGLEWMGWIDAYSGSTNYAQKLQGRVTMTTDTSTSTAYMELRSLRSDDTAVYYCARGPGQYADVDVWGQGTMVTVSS VL: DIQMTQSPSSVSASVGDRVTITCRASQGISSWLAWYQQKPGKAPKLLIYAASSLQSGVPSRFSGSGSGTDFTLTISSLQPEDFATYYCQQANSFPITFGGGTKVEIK

Solution:
1: 8.90; 2: 8.89
